System: LOX IMVI melanoma
test_name: NCI tumour cell line growth inhibition, 48 h
assay_metric: TGI

Field: example entries. Status: answers known.
molecule=COc1ccc(-c2oc3cc(OC(C)=O)cc(OC(C)=O)c3c(=O)c2OC)cc1 target_under_test="LOX IMVI melanoma" value_observed="27.9 µM"
molecule=Cn1c(=O)c(Oc2ccc(F)cc2F)cc2cnc(N[C@@H]3CCOC3)nc21 target_under_test="LOX IMVI melanoma" value_observed="> 25 µM"
molecule=COS(C)(=O)=O target_under_test="LOX IMVI melanoma" value_observed="> 2 µM"
molecule="CCCCNC(=S)OCCC(C)CCCC(C)C (stereo unspecified)" target_under_test="LOX IMVI melanoma" value_observed="> 100 µM"
molecule=COc1ccc(/C=C/C(=O)c2c(-c3ccccc3)nn(C)c(=O)c2N2CCOCC2)cc1 target_under_test="LOX IMVI melanoma" value_observed="> 100 µM"

# value lookup — system LOX IMVI melanoma, readout TGI, item CCOC(=O)CCC(NC(=O)c1ccc(Oc2nc3c(N)cc(C(F)(F)F)cc3nc2-c2ccccc2)cc1)C(=O)OCC (stereo unspecified) > 100 µM

# value lookup — system LOX IMVI melanoma, readout TGI, item "Cn1c(=O)cc2[nH]c3ccccc3n2c1=O" 38.4 µM

# value lookup — system LOX IMVI melanoma, readout TGI, item "CC1=NN2C(c3ccc([N+](=O)[O-])cc3)=CSC2=NC(C)(C)C1" > 100 µM

# value lookup — system LOX IMVI melanoma, readout TGI, item CC(=O)C1C(=O)C(=O)N(c2ccc([N+](=O)[O-])cc2)C1=O (stereo unspecified) > 100 µM

# value lookup — system LOX IMVI melanoma, readout TGI, item "CCN(CC)C(=S)SCC(=O)Nc1nc2c(s1)CCCC2" > 100 µM

# value lookup — system LOX IMVI melanoma, readout TGI, item C=CCOCCC(CC=C)C(=O)CC(=O)OC (stereo unspecified) > 100 µM

---

Test system: SK-MEL-28 melanoma
test_name: NCI tumour cell line growth inhibition, 48 h
Decision: TGI compared against 10 µM; not below it gives criterion met, below it gives criterion not met.

molecule=O=C(N/C(=C\c1ccccc1O)c1nc2ccccc2[nH]1)c1ccccc1 assigned_class="criterion met"

Textbook exercise: given the entry NC(Cc1c[nH]c2ccc([N+](=O)[O-])cc12)C(=O)O (configuration not stated) , state whether its TGI is greater than or equal to 10 µM. criterion met

Textbook exercise: given the entry "Cc1c2ccncc2c(C)c2c1[nH]c1ccc(Oc3ccccc3)cc12" , state whether its TGI is greater than or equal to 10 µM. criterion not met

Textbook exercise: given the entry "COC(=O)Cc1c([C@H]2[C@H](CC(=O)OC)c3ccccc3N2S(=O)(=O)c2ccc(C)cc2)[nH]c2ccccc12" , state whether its TGI is greater than or equal to 10 µM. criterion met

Textbook exercise: given the entry "Nc1ncc(-c2ccc3ncnc(N4CCc5ccc(Cl)cc54)c3c2)cc1C(F)(F)F" , state whether its TGI is greater than or equal to 10 µM. criterion met

Textbook exercise: given the entry CCS(=O)c1c2cc(OC)ccc2nc2ccc(OC)cc12 (configuration not stated) , state whether its TGI is greater than or equal to 10 µM. criterion met

Textbook exercise: given the entry "COc1ccc(-c2csc(Cc3nc4c(Br)cc(Br)cc4c(=O)n3-c3ccc(OC)cc3)n2)cc1" , state whether its TGI is greater than or equal to 10 µM. criterion met

Textbook exercise: given the entry "CNC(=O)c1c(F)cccc1Nc1nc(Nc2cc3c(cc2OC)CCN3C(=O)CN(C)C)nc2[nH]ccc12" , state whether its TGI is greater than or equal to 10 µM. criterion not met
